- Tested on: MES SA, MES SA DX and HEK 293T cells
- TEST PROTOCOL: In vitro cytotoxicity assay, structure-activity discussion over the cell lines tested
- CONDITION SET: refers to Tables 2 and 3
EXPERIMENTAL READOUT: cytotoxicity potency (in words, structure-activity discussion)

CCOC(=O)[C@@H](C)C[C@H](Cc1ccccc1)NC(=O)c1csc([C@@H](C[C@H](C(C)C)N(C)C(=O)[C@@H](NC(=O)[C@H]2CCCCN2C)C(C)(C)C)OC(C)=O)n1    exceptional potencies
CCOC(=O)[C@@H](C)C[C@H](Cc1ccccc1)NC(=O)c1csc([C@@H](C[C@H](C(C)C)N(C)C(=O)[C@@H](NC(=O)[C@H]2CCCCN2C)C(C)(C)CC)OC(C)=O)n1    exceptional potencies

----------
- Test system: MES SA (uterine sarcoma cell line)
- TEST PROTOCOL: In vitro cytotoxicity assay (CellTiter-Glo, 72 hours), MES SA
- Assay type: cell-based
- CONDITION SET: Homo sapiens, MES-SA, 72 h, read-out: MES SA, IC50 Value in nM
// assign 1 if IC50 falls strictly below 1 nM, else 0 (ties count as 0)

Ask | Check if IC50 falls below 1 nM for CCN[C@@H](C[C@H](Cc1ccccc1)NC(=O)c1csc([C@@H](C[C@H](C(C)C)N(C)C(=O)[C@@H](NC(=O)[C@H]2CCCCN2C)C(C)C)OC(C)=O)n1)C(=O)OC [Tb118] .
Reply | 1

Ask | Check if IC50 falls below 1 nM for COC(=O)[C@@H](C)C[C@H](Cc1ccccc1)NC(=O)c1csc([C@@H](C[C@H](C(C)C)N(C)C(=O)[C@H](NC(=O)[C@H]2CCCCN2C)C(C(F)(F)F)C(F)(F)F)OC(C)=O)n1 [Tb85] .
Reply | 0

Ask | Check if IC50 falls below 1 nM for CC(=O)O[C@H](C[C@H](C(C)C)N(C)C(=O)[C@@H](NC(=O)[C@H]1CCCN1C)C(C)C)c1nc(C(=O)N[C@@H](Cc2ccccc2)C[C@H](C)C(=O)O)c(C)s1 [Tb71] .
Reply | 0

Ask | Check if IC50 falls below 1 nM for CCCC[C@H](NC(=O)[C@H]1CCCN1C)C(=O)N(C)[C@H](C[C@@H](OC(C)=O)c1nc(C(=O)N[C@@H](Cc2ccccc2)C[C@H](C)C(=O)OCC)cs1)C(C)C [Tb96] .
Reply | 0

Ask | Check if IC50 falls below 1 nM for COC(=O)[C@@H](CC(Cc1ccccc1)NC(=O)c1csc([C@@H](CC(C(C)C)N(C)C(=O)[C@@H](NC(=O)[C@H]2CCCCN2C)C(C)C)OC(C)=O)n1)NC(=O)OCc1ccccc1 (stereo in doubt) [Tb115] .
Reply | 1

----------
- System: MES SA (uterine sarcoma cell line)
- TEST PROTOCOL: In vitro cytotoxicity assay (CellTiter-Glo, 72 hours), MES SA
- Format: cell-based
- CONDITION SET: Homo sapiens, MES-SA, 72 h, read-out: MES SA, IC50
Assignment: determine reported IC50 for the given compounds.
Reply numerically in nM, unit not repeated.

Ask | Entry CC(=O)O[C@H](C[C@H](C(C)C)N(C)C(=O)[C@@H](NC(=O)[C@H]1CCCCN1C)C(C)C)c1nc(C(=O)N[C@@H](Cc2ccccc2)C[C@H](C)C(=O)O)c(C)s1 has what IC50?
Reply | 0.836

Ask | Entry COC(=O)[C@H](CO)C[C@H](Cc1ccccc1)NC(=O)c1csc([C@@H](C[C@H](C(C)C)N(C)C(=O)[C@@H](NC(=O)[C@H]2CCCCN2C)C(C)C)OC(C)=O)n1 has what IC50?
Reply | 0.059

Ask | Entry CC(=O)O[C@H](C[C@H](C(C)C)N(C)C(=O)[C@@H](NC(=O)[C@H]1CCCCN1C)C(C)(C)C)c1nc(C(=O)N[C@@H](Cc2ccccc2)C[C@H](C)C(=O)O)cs1 has what IC50?
Reply | 0.01

Ask | Entry CC[C@H](NC(=O)[C@H]1CCCCN1C)C(=O)N(C)[C@H](C[C@@H](OC(C)=O)c1nc(C(=O)N[C@@H](Cc2ccccc2)C[C@H](C)C(=O)O)cs1)C(C)C has what IC50?
Reply | 0.46

Ask | Entry COC(=O)[C@@H](CC(Cc1ccccc1)NC(=O)c1csc([C@@H](CC(C(C)C)N(C)C(=O)[C@@H](NC(=O)[C@H]2CCCCN2C)C(C)C)OC(C)=O)n1)NC(=O)OCc1ccccc1 (stereo in doubt) has what IC50?
Reply | 0.02

Ask | Entry CCOC(=O)[C@@H](C)C[C@H](Cc1ccccc1)NC(=O)c1csc([C@@H](C[C@H](C(C)C)N(C)C(=O)[C@@H](NC(=O)[C@H]2CCCCN2C)C(C)(C)CC)OC(C)=O)n1 has what IC50?
Reply | 0.95

Ask | Entry COC(=O)[C@H](C[C@H](Cc1ccccc1)NC(=O)c1csc([C@@H](C[C@H](C(C)C)N(C)C(=O)[C@@H](NC(=O)[C@H]2CCCCN2C)C(C)C)OC(C)=O)n1)N(C)C has what IC50?
Reply | 0.099

Ask | Entry CC(=O)O[C@H](C[C@H](C(C)C)N(C)C(=O)[C@@H](NC(=O)[C@H]1CCCCN1C)C(C)C)c1nc(C(=O)N[C@@H](Cc2ccccc2)C[C@H](C)C(=O)O)c(C(C)C)s1 has what IC50?
Reply | 1.28

Ask | Entry COC(=O)[C@@H](C)C[C@H](Cc1ccccc1)NC(=O)c1cccc([C@@H](C[C@H](C(C)C)N(C)C(=O)[C@@H](NC(=O)[C@H]2CCCCN2C)C(C)C)OC(C)=O)n1 has what IC50?
Reply | 0.22

Ask | Entry COC(=O)C(CC(Cc1ccccc1)NC(=O)c1csc([C@@H](CC(C(C)C)N(C)C(=O)[C@@H](NC(=O)[C@H]2CCCCN2C)C(C)C)OC(C)=O)n1)NC(=O)OCc1ccccc1 (stereo in doubt) has what IC50?
Reply | 0.007

----------
- Tested on: MES SA (uterine sarcoma cell line)
- TEST PROTOCOL: In vitro cytotoxicity assay (CellTiter-Glo, 72 hours), MES SA
- Assay type: cell-based
- CONDITION SET: Homo sapiens, MES-SA, 72 h, read-out: MES SA, IC50 Value in nM
Assignment: determine reported IC50 for the given compounds.
Reply numerically in nM, unit not repeated.

Ask | Entry COC(=O)C(CC(Cc1ccccc1)NC(=O)c1csc([C@@H](CC(C(C)C)N(C)C(=O)[C@@H](NC(=O)[C@H]2CCCCN2C)C(C)C)OC(C)=O)n1)NC(=O)OCc1ccccc1 (stereo in doubt) has what IC50?
Reply | 0.007

Ask | Entry CC(=O)O[C@H](C[C@H](C(C)C)N(C)C(=O)[C@@H](NC(=O)[C@H]1CCCCN1C)C(C)(C)C)c1nc(C(=O)N[C@@H](Cc2ccccc2)C[C@H](C)C(=O)O)cs1 has what IC50?
Reply | 0.01

Ask | Entry COC(=O)[C@@H](C)C[C@H](Cc1ccccc1)NC(=O)c1nc([C@@H](C[C@H](C(C)C)N(C)C(=O)[C@@H](NC(=O)[C@H]2CCCCN2C)C(C)C)OC(C)=O)sc1C(C)C has what IC50?
Reply | 11.7

Ask | Entry CC(=O)O[C@H](C[C@H](C(C)C)N(C)C(=O)[C@@H](NC(=O)[C@H]1CCCCN1C)C(C)C)c1nc(C(=O)N[C@@H](Cc2ccccc2)C[C@H](C)C(=O)O)cs1 has what IC50?
Reply | 6.07

Ask | Entry CCOC(=O)[C@@H](C)CC(Cc1ccccc1)NC(=O)c1csc([C@@H](CC(C(C)C)N(C)C(=O)[C@@H](NC(=O)[C@H]2C[C@H](O[Si](C)(C)C(C)(C)C)CCN2C)C(C)C)OC(C)=O)n1 (stereo in doubt) has what IC50?
Reply | 848

----------
- Test system: MES SA (uterine sarcoma cell line)
- TEST PROTOCOL: In vitro cytotoxicity assay (CellTiter-Glo, 72 hours), MES SA
- Assay type: cell-based
- CONDITION SET: Homo sapiens, MES-SA, 72 h, read-out: MES SA, IC50 Value in nM
EXPERIMENTAL READOUT: IC50 (nM)
Reply numerically in nM, unit not repeated.

Ask | Entry CCOC(=O)[C@@H](C)C[C@H](Cc1ccccc1)NC(=O)c1csc([C@@H](C[C@H](C(C)C)N(C)C(=O)[C@H](CCC(C)C)NC(=O)[C@H]2CCCN2C)OC(C)=O)n1 has what IC50?
Reply | 41.8

Ask | Entry COC(=O)[C@@H](C)C[C@H](Cc1ccccc1)NC(=O)c1nc([C@@H](C[C@H](C(C)C)N(C)C(=O)[C@@H](NC(=O)[C@H]2CCCCN2C)C(C)C)OC(C)=O)sc1C has what IC50?
Reply | 1.03

Ask | Entry CCC(C)(C)[C@H](NC(=O)[C@H]1CCCCN1C)C(=O)N(C)[C@H](C[C@@H](OC(C)=O)c1nc(C(=O)N[C@@H](Cc2ccccc2)C[C@H](C)C(=O)O)cs1)C(C)C has what IC50?
Reply | 0.36
